experiment: Stability of PSMA substrates in human plasma, 18 hour incubation, HPLC; format: in vitro ADME; settings: 18 hour incubation in human plasma; hydrolysis of substrate to APA-Asp or APA-Glu

compound	unit-name	% APA-Glu or -Asp
CN(Cc1cnc2nc(N)nc(N)c2n1)c1ccc(C(=O)N[C@@H](CC(=O)O)C(=O)N[C@@H](CCC(=O)O)C(=O)O)cc1	%	1
CN(Cc1cnc2nc(N)nc(N)c2n1)c1ccc(C(=O)N[C@@H](CCC(=O)N[C@@H](CCC(=O)N[C@@H](CCC(=O)N[C@@H](CCC(=O)N[C@@H](CCC(=O)O)C(=O)O)C(=O)O)C(=O)O)C(=O)O)C(=O)O)cc1 [APA-Glu*Glu*Glu*Glu*Glu, reference compound]	%	11
CN(Cc1cnc2nc(N)nc(N)c2n1)c1ccc(C(=O)N[C@@H](CCC(=O)N[C@@H](CCC(=O)N[C@@H](CCC(=O)N[C@@H](CC(=O)O)C(=O)N[C@@H](CCC(=O)O)C(=O)O)C(=O)O)C(=O)O)C(=O)O)cc1	%	23
CN(Cc1cnc2nc(N)nc(N)c2n1)c1ccc(C(=O)N[C@@H](CCC(=O)N[C@@H](CCC(=O)N[C@@H](CCC(=O)N[C@@H](CCC(=O)N[C@@H](CC(=O)O)C(=O)O)C(=O)O)C(=O)O)C(=O)O)C(=O)O)cc1	%	9
CN(Cc1cnc2nc(N)nc(N)c2n1)c1ccc(C(=O)N[C@@H](CCC(=O)N[C@@H](CCC(=O)N[C@@H](CCC(=O)N[C@@H](CCC(=O)N[C@@H](CCC(N)=O)C(=O)O)C(=O)O)C(=O)O)C(=O)O)C(=O)O)cc1	%	6
CN(Cc1cnc2nc(N)nc(N)c2n1)c1ccc(C(=O)N[C@@H](CC(=O)O)C(=O)N[C@@H](CCC(=O)N[C@@H](CCC(=O)N[C@@H](CC(=O)O)C(=O)N[C@@H](CCC(=O)O)C(=O)O)C(=O)O)C(=O)O)cc1	%	0
CN(Cc1cnc2nc(N)nc(N)c2n1)c1ccc(C(=O)N[C@@H](CCC(=O)N[C@@H](CCC(=O)N[C@@H](CCC(=O)N[C@@H](CC(=O)O)C(=O)N[C@@H](CCC(N)=O)C(=O)O)C(=O)O)C(=O)O)C(=O)O)cc1	%	13

Hey, just so you know, these numbers are from patent US7767648B2.
